- TEST_NAME: chemical genetic growth profiling, strain panel (AID 1159580);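 further: tested at 20 µM; growth read once vehicle control cultures reached saturation at 30 °C; 1 = growth at the plate median or of vehicle wells; lower values mean less growth of the strain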
- CONDITION_DESCRIPTION: S. cerevisiae deletion strains, growth OD, locus YDR101C, strain arx1, active compounds read low
Among all 5,500 compounds or so, about 2,000 (36%) were called active. Inconclusive results (about 18%) are left out. The list shows a part of the results.
Strictly below 1 in normalized growth: satisfied. Otherwise: not satisfied.

O=C1C=CC(=O)c2c(O)cccc21: not satisfied

API: the following record is the query input.
Please let me know if `O=C1c2cccc(O)c2C(=O)c2c(O)cccc21` shows normalized growth below 1.
satisfied

----------
- TEST_NAME: chemical genetic growth profiling, strain panel (AID 1159580);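 further: tested at 20 µM; growth read once vehicle control cultures reached saturation at 30 °C; 1 = growth at the plate median or of vehicle wells; lower values mean less growth of the strain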
- CONDITION_DESCRIPTION: S. cerevisiae deletion strains, growth OD, locus YAL013W, strain DEP1, active compounds read low
Screen size: about 5,500 compounds; about 2,000 (36%) were called active. Inconclusive results (about 18%) are left out. This is one part of the list.
ATTRIBUTE_MEASURED: normalized growth
Would you mind answering with just the numeric figure?

A selection of reference data follows.
N#CCC(=O)N(Cc1ccccc1F)C(=O)NC1CCCCC1: 0.993
OC[C@H]1O[C@@H](Oc2ccc(O)cc2)[C@H](O)[C@@H](O)[C@@H]1O: 1.02
Cc1cc2c(cc1C)CSC(C)(c1ccc(F)cc1)SC2: 0.994
CN1C(=O)CCC1c1cccnc1 (stereo unspecified): 1.02
O=C1CSC(c2cccnc2)N1c1ccc(C2CCCCC2)cc1 (stereo unspecified): 1
CC(C)N=C(N)N=C(N)Nc1ccc(Cl)cc1: 1.02
COC(=O)c1c(-c2cc(OC)c(OC)c(OC)c2)c2ccnc(OCc3ncccn3)c2c(=O)n1Cc1ccnc(C)c1: 1
Nc1cccc2c1C(=O)c1ccccc1-2: 0.676
O=C1CSC(c2cccnc2)N1c1ccc(Cl)cc1 (stereo unspecified): 1
O=C(N[C@@H](CO)[C@H](O)c1ccc([N+](=O)[O-])cc1)C(Cl)Cl: 1

response.value for `O=C(/C=C/c1ccccc1)c1c(O)cc(O)cc1O` (field: normalized growth) = 1.01

----------
- TEST_NAME: chemical genetic growth profiling, strain panel (AID 1159580);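 further: tested at 20 µM; growth read once vehicle control cultures reached saturation at 30 °C; 1 = growth at the plate median or of vehicle wells; lower values mean less growth of the strain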
- CONDITION_DESCRIPTION: S. cerevisiae deletion strains, growth OD, locus YBR009C, strain hhf1, active compounds read low
About 2,000 (36%) of roughly 5,500 compounds were called active. Inconclusive results (about 18%) are left out. The list shows a part of the results.
ATTRIBUTE_MEASURED: normalized growth
Note: the reply should be a number with no unit written.

Below are worked cases with known answers.
COC(=O)C[C@H]1C(C)(C)[C@@H](OC(C)=O)[C@@H]2CC3=C4CC(=O)O[C@@H](c5ccoc5)[C@]4(C)CCC3[C@@]1(C)C2=O (stereo not given in full): 1
O=C1C=CC(=O)c2c(O)cccc21: 0.966
O=c1c(O)c(-c2ccccc2)oc2cccc(O)c12: 0.856
O=C(/C=C/c1ccc(O)cc1)c1ccc(O)cc1O: 0.999
O=C(Nc1ccc([N+](=O)[O-])cc1Cl)c1cc(Cl)ccc1O: 0.896

Now take the following compound into account.
compound C=C(C)C1Cc2c(ccc3c(=O)c4c(oc23)COc2cc(OC)c(OC)cc2-4)O1 (stereo not given) , normalized growth observed: 1

----------
- TEST_NAME: chemical genetic growth profiling, strain panel (AID 1159580);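 further: tested at 20 µM; growth read once vehicle control cultures reached saturation at 30 °C; 1 = growth at the plate median or of vehicle wells; lower values mean less growth of the strain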
- CONDITION_DESCRIPTION: S. cerevisiae deletion strains, growth OD, locus YJR066W, strain TOR1 (second series), active compounds read low
Among all 5,500 compounds or so, about 2,000 (36%) were called active. Not shown: some 18% with an inconclusive outcome. Some of the results follow.
ATTRIBUTE_MEASURED: normalized growth
The answer should be written as a number, with no unit following it.

Here are 3 molecules together with their reported answers.
COC(=O)c1cccc(NS(=O)(=O)c2ccc(Cl)c(Cl)c2)c1: 0.98
COC(=O)c1cc([N+](=O)[O-])ccc1S(=O)(=O)Cc1ccc(Cl)cc1: 0.88
CC(C)c1cccc(C(C)C)c1OC(=O)NC(=O)c1c(Cl)cccc1Cl: 0.945

So for `COc1cc(C2SCCS2)cc(Br)c1OC(=O)NC(=O)c1c(Cl)cccc1Cl` , the logged normalized growth turned out to be 0.926

// normalized growth value for `Cn1cc(Br)c(-c2cccc(NS(=O)(=O)c3ccc(Cl)cc3)c2)n1` : 1.01

Per the records, this molecule ( `Cc1csc2ncnc(N3CCN(C(=O)Nc4ccc(SC(F)(F)F)cc4)CC3)c12` ) has normalized growth equal to 0.65

Field normalized growth (entry `O=S(=O)(Nc1c(F)cccc1F)c1ccc(Cl)c(Cl)c1` ) reads 0.967

For record C=CCC1C(=O)N(S(=O)(=O)c2ccc(Cl)cc2)N=C1CCC (stereo not given) the listed normalized growth is 0.978

The reported normalized growth of the molecule `COc1ccc(OC)c2nc3c(nc12)C(=O)c1ccccc1-3` was 0.947

The reported value for `Cc1csc2c(N3CCN(C(=S)Nc4ccc(C(F)(F)F)cc4)CC3)ncnc12` in terms of normalized growth is 0.928
